- assay.target: UniProt:Q96S37
- Sequence (Q96S37 whole entry): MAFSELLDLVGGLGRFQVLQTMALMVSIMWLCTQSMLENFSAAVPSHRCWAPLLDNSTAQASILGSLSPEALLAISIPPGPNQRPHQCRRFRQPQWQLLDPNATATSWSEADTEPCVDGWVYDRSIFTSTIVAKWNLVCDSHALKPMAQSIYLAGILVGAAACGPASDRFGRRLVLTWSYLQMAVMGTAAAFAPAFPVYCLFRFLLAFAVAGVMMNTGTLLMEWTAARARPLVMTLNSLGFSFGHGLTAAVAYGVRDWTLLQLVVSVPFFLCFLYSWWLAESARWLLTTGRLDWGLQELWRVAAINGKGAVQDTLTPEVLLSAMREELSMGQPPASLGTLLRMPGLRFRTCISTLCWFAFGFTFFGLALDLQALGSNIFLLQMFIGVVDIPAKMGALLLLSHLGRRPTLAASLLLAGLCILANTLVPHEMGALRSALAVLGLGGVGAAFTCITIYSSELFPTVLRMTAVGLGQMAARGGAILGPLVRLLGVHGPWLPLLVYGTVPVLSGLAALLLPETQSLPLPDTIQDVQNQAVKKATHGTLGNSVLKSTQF
- measurement.notes: Inhibition of human URAT1 expressed in HEK293 cells assessed as reduction in [8-14C]uric acid uptake
pIC50: −log10 of the molar value.
measurement.label: pIC50

Some compounds with recorded pIC50:
{"columns": ["compound.structure", "measurement.label", "observed.result"],
 "data": [
  ["O=S(=O)(O)CSc1nnc(Br)n1Cc1ccc(Br)c2ccccc12", "pIC50", 4.84],
  ["O=S(=O)(CSc1nnc(Br)n1Cc1ccc(Br)c2ccccc12)Nc1ccc(Br)nc1", "pIC50", 5.66],
  ["O=S(=O)(CSc1nnc(Br)n1Cc1ccc(Br)c2ccccc12)Nc1cccnc1Br", "pIC50", 6.55],
  ["O=S(=O)(CSc1nnc(Br)n1Cc1ccc(Br)c2ccccc12)Nc1cncc(C(F)(F)F)c1", "pIC50", 5.20],
  ["O=C(CSc1nnc(Br)n1Cc1ccc(Br)c2ccccc12)NO", "pIC50", 6.19]
]}

a = O=S(=O)(CSc1nnc(Br)n1Cc1ccc(Br)c2ccccc12)Nc1cccnc1
b = Oc1c(Br)cc(CSc2nnc(Br)n2Cc2ccc(Br)c3ccccc23)cc1Br
(Q) Which value of pIC50 is numerically greater: that of a or that of b ? State your choice using its label.
(A) a

A = COc1ncccc1NS(=O)(=O)CSc1nnc(Br)n1Cc1ccc(Br)c2ccccc12
B = O=S(=O)(CSc1nnc(Br)n1Cc1ccc(Br)c2ccccc12)Nc1ccc(C(F)(F)F)nc1
C = O=S(=O)(CSc1nnc(Br)n1Cc1ccc(Br)c2ccccc12)Nc1ccc(Cl)nc1
(Q) Order the items by recorded pIC50; the first position goes to the largest value. # answer = labels listed in requested order
(A) C, A, B
(C: 5.71, A: 5.39, B: 4.99)

I = NS(=O)(=O)CSc1nnc(Br)n1Cc1ccc(Br)c2ccccc12
II = O=S(=O)(CSc1nnc(Br)n1Cc1ccc(Br)c2ccccc12)Nc1ccc(Br)nc1Br
III = O=S(=O)(CSc1nnc(Br)n1Cc1ccc(Br)c2ccccc12)Nc1cnccc1I
IV = O=S(=O)(CSc1nnc(Br)n1Cc1ccc(Br)c2ccccc12)Nc1cc(Cl)cnc1Cl
(Q) Put the items in order so that reported pIC50 rises from first to last. # answer = labels listed in requested order
(A) I, III, II, IV

I = O=S(=O)(CSc1nnc(Br)n1Cc1ccc(Br)c2ccccc12)Nc1cccnc1Cl
II = O=S(=O)(CSc1nnc(Br)n1Cc1ccc(Br)c2ccccc12)Nc1ccc(Cl)nc1Cl
(Q) Among I and II , whose measured pIC50 is the smaller figure? State your choice using its label.
(A) I
(I: 5.29, II: 5.78)

====

- assay.target: Solute carrier family 22 member 12 (Homo sapiens, UniProt Q96S37)
- Sequence (Q96S37 whole entry): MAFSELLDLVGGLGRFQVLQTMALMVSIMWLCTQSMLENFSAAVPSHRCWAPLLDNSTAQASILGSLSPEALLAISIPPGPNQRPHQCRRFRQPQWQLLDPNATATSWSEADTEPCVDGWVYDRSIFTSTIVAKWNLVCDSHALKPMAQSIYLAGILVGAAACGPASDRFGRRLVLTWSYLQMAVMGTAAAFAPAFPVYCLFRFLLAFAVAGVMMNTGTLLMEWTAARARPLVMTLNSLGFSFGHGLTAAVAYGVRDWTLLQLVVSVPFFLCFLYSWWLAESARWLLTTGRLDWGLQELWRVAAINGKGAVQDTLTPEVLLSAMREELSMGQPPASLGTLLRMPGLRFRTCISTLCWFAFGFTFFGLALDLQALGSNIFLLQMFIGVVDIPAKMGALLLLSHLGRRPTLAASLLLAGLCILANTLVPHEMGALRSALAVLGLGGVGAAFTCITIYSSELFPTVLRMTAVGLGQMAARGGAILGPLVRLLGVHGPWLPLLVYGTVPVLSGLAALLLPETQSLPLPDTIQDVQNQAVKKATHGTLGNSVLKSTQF
- measurement.notes: Inhibition of human URAT1 expressed in HEK293 cells assessed as reduction in [8-14C]uric acid uptake
pIC50: −log10 of the molar value.
measurement.label: pIC50

1 = O=S(=O)(CSc1nnc(Br)n1Cc1ccc(Br)c2ccccc12)Nc1ccc(F)nc1
2 = Brc1ccc(Cn2c(Br)nnc2SCc2nnn[nH]2)c2ccccc12
3 = O=S(=O)(CSc1nnc(Br)n1Cc1ccc(Br)c2ccccc12)Nc1ccccc1
(Q) Descending by pIC50 please, for everything listed above. # answer = labels listed in requested order
(A) 1, 2, 3

Entry source: ChEMBL document CHEMBL4371083
